assay: probe aEGFR binding to arrayed compounds – biochemical, biotinylated probe, 635/667 nm fluorescence, primary screen (AID 1097); conditions: small-molecule microarray, higher = more signal;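 note: probe is a biotinylated anti-EGFR antibody binding compounds printed on slides; score combines fluorescence near 667 nm and signal to noise of each spot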
Kindly supply the reported composite z-score values for the records listed here.
One number for each entry.

Below are 7 molecules. Give each one its composite z-score.
1. CCCN1C(=O)[C@]2(Cc3ccccc31)N=C(c1ccc(OCCCO)cc1)O[C@@H]2c1ccccc1
2. C[N+](C)(C)CCCCCCNC(=O)[C@@H]1C[C@@H]2C(=O)N3CCC[C@H]3C(=O)N2[C@@H]1c1ccc(O)cc1
3. CCCC[C@@H]1C[C@H]1[C@@H](NC(=O)c1cccs1)c1ccccc1C(F)(F)F
4. CCCCCCc1nc(Cc2cc(OC)c(OC)c(OC)c2)cc2c1[Si](C(C)C)(C(C)C)OC2
5. COc1cc(NN2C(C(O)c3cc(OC)c(OC)c(OC)c3)C=CC3C(=O)N(C)C(=O)C32)cc(OC)c1OC (stereo unspecified)
6. O=C(NCCN1CCOCC1)[C@@H]1c2ccccc2C(=O)N(C2Cc3ccccc3C2)[C@H]1c1ccc(CO)cc1
7. Cc1cc(C)c(C(O)C2C=CC3C(=O)N(c4ccccc4)C(=O)C3N2Nc2ccccc2F)c(C)c1 (stereo unspecified)

Solution:
[-0.139, 0.0401, 0.0695, -0.232, 0.08, -0.214, 0.779]

# map each molecule to its composite z-score
1. O=C1N(Cc2ccccc2)c2ccccc2C[C@]12N=C(c1ccc(OCCCO)cc1)O[C@@H]2c1ccccc1
2. CC(C)C(CO)N1C(=O)[C@@H]2[C@H]3C(=O)OCC=C[C@H]3OC23C=CCN(c2ccc(Cl)cc2)C(=O)[C@@H]13 (stereo partly specified)

Solution:
[-0.0549, -0.068]

Below is a list of molecules. For each, state its recorded composite z-score.
1. CCOC(=O)C[C@H]1[C@H](OC(=O)c2ccccc2-c2ccccc2)[C@@H](NC(=O)c2ccc3ccccc3c2)c2cc(OCCCO)ccc2N1C(=O)c1ccccc1
2. CS(=O)(=O)CCOC(=O)C1=CC(CCCO)=CC(c2ccc(CN3CCCC3)cc2)N(Cc2sc3ccccc3c2Cl)C=C1C(=O)OCCS(C)(=O)=O (stereo unspecified)
3. Cc1ccc(N2C(=O)c3ccccc3[C@@H](C(=O)NCCCN(C)C)[C@@H]2c2ccc(CO)cc2)nc1
4. CCOC(=O)C=Cc1cccc(C)c1O

Solution:
[0.342, 0.447, 0.576, -0.099]

Hey, can you go through the list below and give me composite z-score for every item?
1. C=CCC(OC(C)=O)[C@@H]1[C@@H](N(Cc2ccc(-c3cccc(C(F)(F)F)c3)o2)C(=O)Cc2ccc(OC)cc2)c2cc(OCCCO)ccc2N1C(=O)c1ccc(-c2ccccc2)cc1 (stereo partly specified)
2. CCCC=C(CCC)[C@@H](NC(=O)c1cccs1)c1ccc(C(=O)OC)cc1
3. C=CCNC(=O)[C@@H]1[C@H]2C(=O)O[C@H](c3ccccc3)[C@H](c3ccccc3)N2[C@H](c2ccc(OCCO)cc2)[C@@]12C(=O)N(C(=O)OCCOC)c1ccc(C#Cc3ccc(OC)cc3)cc12

Solution:
1. -0.146
2. 0.925
3. -0.0974

* * *

assay: compound effects on differentiated 3T3-L1 adipocyte viability – cell-based, 3T3-L1 adipocytes, calcein-AM fluorescence, 48 h, basal, profiling panel (AID 1163); details: 3T3-L1 adipocytes viability, higher = more signal; note: test concentration not given here
Exercise: state measured z-score for each of the molecules provided.
One number for each entry.

{"Molecule": "COc1cccc(C)c1NC(=O)O[C@H]1[C@H](OC(=O)Nc2ccc3c(c2)OCO3)[C@@H](OC(=O)Nc2ccc3c(c2)OCO3)[C@@H](OC)O[C@@H]1CO", "z-score": -0.271}
{"Molecule": "C=C(COC)/C(=C/C[C@H](OC(=O)c1ccncc1)c1ccccc1OCCO)c1cc(C(=O)OC)ccc1OC", "z-score": 0.0589}
{"Molecule": "C[C@@H]1NC(=O)[C@@H](Cc2ccccc2)NC(=O)[C@@]23C(=O)N[C@@H](Cc4ccccc4)C2[C@H](C)[C@@]2(C)O[C@H]2C3/C=C/C/C=C\\CNC1=O (some centres undefined)", "z-score": 0.599}
{"Molecule": "CN(C)c1ccc(C(O)C2C=CC3C(=O)NC(=O)C3N2Nc2ccccn2)cc1 (centres undefined)", "z-score": -0.358}
{"Molecule": "CCOC(=O)C[C@H]1[C@H](OC(=O)c2ccccc2-c2ccccc2)[C@@H](NC(=O)c2ccc3ccccc3c2)c2cc(OCCCO)ccc2N1C(=O)c1ccccc1", "z-score": 0.257}

Batch request: z-score for each of the following molecules.
1. COCCCNC(=O)[C@@H]1c2ccccc2C(=O)N(C(C)C)[C@H]1c1ccc(CO)cc1
2. COCCOC(=O)N1C(=O)[C@@]2(c3cc(C#CCCO)ccc31)[C@H](C(=O)Nc1nc3ccccc3s1)[C@H]1C(=O)O[C@H](c3ccccc3)[C@H](c3ccccc3)N1[C@@H]2c1ccc(O)cc1
3. C=C(/C(=C/C[C@H](OC(C)=O)c1ccc(CO)o1)c1cnc2ccccc2c1)C(C)C
4. COc1cc(NN2C(C(O)c3ccco3)C=CC3C(=O)N(C)C(=O)C32)cc(OC)c1OC (centres undefined)
5. CCOC(=O)C[C@H]1[C@H](OC(=O)c2cc3ccccc3oc2=O)[C@@H](NC(=O)c2ccccc2)c2cc(OCCCO)ccc2N1C(=O)c1ccccc1
6. COC(=O)[C@@]1(Cc2ccc(F)cc2)[C@H]2c3cc(C(=O)N4CCCC4)n(Cc4ccc(C)c(F)c4F)c3C[C@H]2CN1C(=O)c1ccccc1

Solution:
0.534
0.274
0.283
-0.615
1.36
-0.82

* * *

Consider the following compounds; for each one, report its z-score.
assay: compound effects on differentiated 3T3-L1 adipocyte viability – cell-based, 3T3-L1 adipocytes, calcein-AM fluorescence, 48 h, basal, profiling panel (AID 1163); conditions: 3T3-L1 adipocytes viability, higher = more signal; note: test concentration not given here
Numbers only.

{"Compound": "CC(C)N1C(=O)c2ccccc2[C@@H](C(=O)NCCN2CCOCC2)[C@@H]1c1ccc(CO)cc1", "Value": -0.973}
{"Compound": "CCOC(=O)C[C@H]1[C@H](OC(=O)c2ccc(C(=O)c3ccccc3)cc2)[C@@H](NC(=O)C2CCCCC2)c2cc(OCCCO)ccc2N1C(=O)c1ccc2ccccc2n1", "Value": 0.347}
{"Compound": "[N-]=[N+]=Nc1ccccc1C[C@]1(C(=O)N2CCOCC2)COC(c2ccc(OCCCO)cc2)=N1", "Value": 1.31}

Take each entry in turn and give its z-score.
1. CN(C)C(=O)[C@]1(CCC(=O)OC(C)(C)C)N=C(c2ccc(OCCCO)cc2)O[C@@H]1c1ccccc1CN=[N+]=[N-]
2. CCCCCCCCCCC(O)C1C=CC2C(=O)N(c3ccccc3)C(=O)C2N1Nc1ccc(C#N)cc1 (centres undefined)
3. COCCOC(=O)N1C(=O)[C@@]2(c3cc(C#CCNC(N)=O)ccc31)[C@H](C(N)=O)[C@H]1C(=O)O[C@H](c3ccccc3)[C@H](c3ccccc3)N1[C@@H]2c1ccccc1OCCO
4. CC(CO)N1C(=O)[C@@H]2[C@H]3C(=O)OCC=C[C@H]3OC23C=CCN(Cn2nnc4ccccc42)C(=O)[C@@H]13 (some centres undefined)
5. C=CCC(OC(C)=O)[C@@H]1[C@@H](N(Cc2cccc3ccccc23)C(=O)Cc2ccc(OC)cc2)c2cc(OCCCO)ccc2N1C(=O)c1ccc(-c2ccccc2)cc1 (some centres undefined)
6. O=C1OCCC=C[C@H]2OC34C=CCN(Cn5nnc6ccccc65)C(=O)[C@H]3N(CCCO)C(=O)[C@@H]4C12 (some centres undefined)
7. COCCOC(=O)N1C(=O)[C@@]2(c3cc(C#CCC(C(=O)OC)C(=O)OC)ccc31)[C@H](c1ccc(OCCO)cc1)N1[C@H](c3ccccc3)[C@H](c3ccccc3)OC(=O)[C@H]1[C@@H]2C(=O)N1CCc2cc(OC)c(OC)cc2C1
8. COc1ccc([Si](C)(C)[C@@H]2[C@@H](CCO)O[C@]3(C(=O)N(Cc4ccccc4)c4ccc(N5CCOC5=O)cc43)[C@H]2C)cc1

Solution:
1. 0.911
2. 0.0958
3. 0.0371
4. -0.948
5. 1.12
6. 1.03
7. -0.0617
8. 1.67

* * *

For each entry below, report its composite z-score value.
test: compounds binding Alexa647 anti-His antibody – biochemical, small-molecule microarray, 635 nm fluorescence, artefact control for SMM control protein annotation, primary screen (AID 1128); conditions: higher = more signal;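 note: score merges feature fluorescence with signal-to-noise for each printed compound spot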
Answers are plain numbers.

Past entries and their recorded results:
{"Molecule": "COc1cccc(C)c1NC(=O)O[C@H]1[C@H](OC(=O)Nc2ccccc2-c2ccccc2)[C@H](OC(=O)Nc2ccccc2-c2ccccc2)[C@@H](OC)O[C@@H]1CO", "Property Name": "composite z-score", "Value": 0.528}
{"Molecule": "COCCOC(=O)N1C(=O)[C@@]2(c3cc(C#CCC(C(=O)OC)C(=O)OC)ccc31)[C@H](c1ccc(OCCO)cc1)N1[C@H](c3ccccc3)[C@H](c3ccccc3)OC(=O)[C@H]1[C@@H]2C(=O)N1CCc2cc(OC)c(OC)cc2C1", "Property Name": "composite z-score", "Value": 1.75}
{"Molecule": "[N-]=[N+]=NCc1ccccc1C[C@@]1(C(N)=O)N=C(c2ccc(OCCCO)cc2)O[C@@H]1c1ccccc1", "Property Name": "composite z-score", "Value": 2.4}
{"Molecule": "[N-]=[N+]=Nc1ccccc1C[C@@]1(C(=O)NCCN2CCOCC2)N=C(c2ccc(OCCCO)cc2)O[C@@H]1c1ccccc1N=[N+]=[N-]", "Property Name": "composite z-score", "Value": 2.81}
{"Molecule": "CC(C)c1ccc(NN2C(C(O)c3ccc(F)cc3)C=CC3C(=O)N(c4ccccc4)C(=O)C32)cc1 (stereo unspecified)", "Property Name": "composite z-score", "Value": 0.651}

Let's switch to this molecule now.
Problem: Requested field: composite z-score. Item: CCCCCN1CC=CC23O[C@@H]4C=CCCOC(=O)C4[C@H]2C(=O)N(CCCCCCO)[C@@H]3C1=O (stereo partly specified)
Solution: 2.82
